- Tested on: MDCK-mdr1 cells
- experimentalProtocol: MDCK-mdr1 permeability assay
- Type: in vitro ADME, canine
- statedConditions: 10 μM apical, 1 h, 37 °C, pH 7.4
The reader will find reported MDCK B/A ratio (basolateral:apical) values listed item by item below.
Please reply with the value in numeric form only.

Below, 5 compounds whose answers are already recorded.
CCCCCn1cc(C(=O)c2cccc3ccccc23)c2cccc(F)c21 = 0.000
CCCCCn1cc(C(=O)c2cccc3ccccc23)c2ccc(F)cc21 = 0.000
CCCCCC1=C/C(=C\c2cccc3ccccc23)c2ccccc21 [2-7a, reference compound] = 0.04
CCCc1ccc(/C=C2\C=C(CCN3CCOCC3)c3ccccc32)c2ccccc12 = 0.000
CCCCCn1cc(C(=O)c2ccc(C(=O)OC)c3ccccc23)c2ccccc21 = 0.00

Consider the compound COC(=O)c1ccc(C(=O)c2cn(CCN3CCOCC3)c3ccccc23)c2ccccc12 and give its measured MDCK B/A ratio (basolateral:apical).
1.02

Consider the compound COc1ccc(/C=C2\C=C(CCN3CCOCC3)c3ccccc32)c2ccccc12 and give its measured MDCK B/A ratio (basolateral:apical).
0.000

Consider the compound CCCCCn1cc(C(=O)c2cccc3ccccc23)c2cc(F)ccc21 and give its measured MDCK B/A ratio (basolateral:apical).
0.000

Consider the compound CCCCCn1cc(C(=O)c2cccc3ccccc23)c2c(F)cccc21 and give its measured MDCK B/A ratio (basolateral:apical).
0.000

Consider the compound CCc1ccc(/C=C2\C=C(CCN3CCOCC3)c3ccccc32)c2ccccc12 and give its measured MDCK B/A ratio (basolateral:apical).
0.000

Data origin: paper PMC5474949
